PROCEDURE TEXT: 10x dilution of soluble forms with standard IV solutions (pH, precipitate)
Assay type: physicochemical
CONDITIONS USED: Cpd A salt solution diluted 10x with 5% Dextrose; precipitate at 24 hr
VALUE KIND: Solution 2 ppt 24 hr

- CCn1cc(C(=O)O)c(=O)c2cc(F)c(N3CCNCC3)cc21 [A D-Gluconic]: no
- CCn1cc(C(=O)O)c(=O)c2cc(F)c(N3CCNCC3)cc21 [A Lactic]: no

---

// pH of Solution lookup, one value per entry
PROCEDURE TEXT: Solubility screening procedure (concentration and pH of filtrate)
Format: physicochemical
CONDITIONS USED: pH of the filtrate, CPD A solutions

See these solved cases before continuing.
• CCn1cc(C(=O)O)c(=O)c2cc(F)c(N3CCNCC3)cc21 [A Maleic] = 2.79
• CCn1cc(C(=O)O)c(=O)c2cc(F)c(N3CCNCC3)cc21 [A L-Leucine] = 6.2
• CCn1cc(C(=O)O)c(=O)c2cc(F)c(N3CCNCC3)cc21 [A Lactic] = 4.05
• CCn1cc(C(=O)O)c(=O)c2cc(F)c(N3CCNCC3)cc21 [A L-Lysine] = 9.5

The recorded pH of Solution for CCn1cc(C(=O)O)c(=O)c2cc(F)c(N3CCNCC3)cc21 [A L-Proline] is 6.28

molecule CCn1cc(C(=O)O)c(=O)c2cc(F)c(N3CCNCC3)cc21 [A Galacturonic] , pH of Solution observed: 5.44

The recorded pH of Solution for entry CCn1cc(C(=O)O)c(=O)c2cc(F)c(N3CCNCC3)cc21 [A Diethanolamine] equals 9.68

// sample CCn1cc(C(=O)O)c(=O)c2cc(F)c(N3CCNCC3)cc21 [A L-Cysteic] , its pH of Solution was 2.92

// field: pH of Solution; key: CCn1cc(C(=O)O)c(=O)c2cc(F)c(N3CCNCC3)cc21 [A D,L-Alanine] ; value = 6.44

// pH of Solution lookup, molecule = CCn1cc(C(=O)O)c(=O)c2cc(F)c(N3CCNCC3)cc21 [A Succinic] , result: 4.25

Per the record, CCn1cc(C(=O)O)c(=O)c2cc(F)c(N3CCNCC3)cc21 [A Methane Sulphonic] has pH of Solution of 1.33

Recorded pH of Solution (molecule CCn1cc(C(=O)O)c(=O)c2cc(F)c(N3CCNCC3)cc21 [A L-Arginine] ): 9.8

pH of Solution recorded for this molecule, CCn1cc(C(=O)O)c(=O)c2cc(F)c(N3CCNCC3)cc21 [A Citric] , is 3.32

So for CCn1cc(C(=O)O)c(=O)c2cc(F)c(N3CCNCC3)cc21 [A L-Histidine] , the logged pH of Solution turned out to be 7.4

---

PROCEDURE TEXT: 10x dilution of soluble forms with standard IV solutions (pH, precipitate)
Format: physicochemical
CONDITIONS USED: Cpd A salt solution diluted 10x with 5% Dextrose
VALUE KIND: Solution 2 pH dil

Completed entries (count: 3):
• CCn1cc(C(=O)O)c(=O)c2cc(F)c(N3CCNCC3)cc21 [A Methane Sulphonic] = 2.7
• CCn1cc(C(=O)O)c(=O)c2cc(F)c(N3CCNCC3)cc21 [A Isethionic] = 2.27
• CCn1cc(C(=O)O)c(=O)c2cc(F)c(N3CCNCC3)cc21 [A L-Glutamic] = 5.05

Turning to the following compound.
Given item CCn1cc(C(=O)O)c(=O)c2cc(F)c(N3CCNCC3)cc21 [A Acetic] , the value recorded as its Solution 2 pH dil is 5.0

---

PROCEDURE TEXT: Solubility screening procedure (concentration and pH of filtrate)
Format: physicochemical
CONDITIONS USED: pH of the filtrate, CPD B solutions
Marks after values point to notes of the source that are not given here.
VALUE KIND: pH of Solution

Example entries and their recorded answers appear below.
- CCn1cc(C(=O)O)c(=O)c2cc(F)c(N3CCNCC3)nc21 [B Acetic]: 4.97^c
- CCn1cc(C(=O)O)c(=O)c2cc(F)c(N3CCNCC3)nc21 [B Choline]: 9.8
- CCn1cc(C(=O)O)c(=O)c2cc(F)c(N3CCNCC3)nc21 [B Maleic]: 2.60
- CCn1cc(C(=O)O)c(=O)c2cc(F)c(N3CCNCC3)nc21 [B Succinic]: 4.45^b
- CCn1cc(C(=O)O)c(=O)c2cc(F)c(N3CCNCC3)nc21 [B L-Proline]: 6.92
- CCn1cc(C(=O)O)c(=O)c2cc(F)c(N3CCNCC3)nc21 [B L-Cysteic]: 2.78

The reported pH of Solution of the compound CCn1cc(C(=O)O)c(=O)c2cc(F)c(N3CCNCC3)nc21 [B Glycine] was 6.87

# pH of Solution of CCn1cc(C(=O)O)c(=O)c2cc(F)c(N3CCNCC3)nc21 [B Methane Sulphonic] = 1.67^c

For this compound ( CCn1cc(C(=O)O)c(=O)c2cc(F)c(N3CCNCC3)nc21 [B Lactobionic] ), measured pH of Solution is 3.6 ^b

# compound CCn1cc(C(=O)O)c(=O)c2cc(F)c(N3CCNCC3)nc21 [B Hydrochloric] ; its pH of Solution = 1.83^c

Given item CCn1cc(C(=O)O)c(=O)c2cc(F)c(N3CCNCC3)nc21 [B L-Aspartic] , the value recorded as its pH of Solution is 4.64

CCn1cc(C(=O)O)c(=O)c2cc(F)c(N3CCNCC3)nc21 [B Gluconic] has a reported pH of Solution of 4.6

Summary for this compound, CCn1cc(C(=O)O)c(=O)c2cc(F)c(N3CCNCC3)nc21 [B Lactic] : pH of Solution is 4.24^b

Value of measured pH of Solution for the entry CCn1cc(C(=O)O)c(=O)c2cc(F)c(N3CCNCC3)nc21 [B Oxalic] : 1.76^b

---

PROCEDURE TEXT: Solubility screening procedure (concentration and pH of filtrate)
Format: physicochemical
CONDITIONS USED: compound B + equimolar acid, amino acid or base in deionized water, room temperature, filtrate, UV assay
VALUE KIND: Conc. of CPD B
The reply should read as a number followed by its unit.

Some compounds with recorded Conc. of CPD B:
• CCn1cc(C(=O)O)c(=O)c2cc(F)c(N3CCNCC3)nc21 [B Isethionic] = 220000 µg/mL
• CCn1cc(C(=O)O)c(=O)c2cc(F)c(N3CCNCC3)nc21 [B L-Histidine] = 1100 µg/mL
• CCn1cc(C(=O)O)c(=O)c2cc(F)c(N3CCNCC3)nc21 [B Maleic] = 7750 µg/mL

Query CCn1cc(C(=O)O)c(=O)c2cc(F)c(N3CCNCC3)nc21 [B Tartaric] yields Conc. of CPD B of 7700 µg/mL
